# Test system: NCI-H226 lung
# method: NCI-60 one-dose screen, 48 h
# run parameters: 10 µM unless noted
About 83,000 compounds went through this panel and 20% of them were active in at least one assay; those are over-represented in the sample as a whole. The source made the active and inactive calls. The calls were made as follows: active = growth percent below 10; inactive = the rest.
One label from this list, please: label 1 (active), label 0 (inactive)

Please review the entries below; each comes with its answer.
compound	label value
COc1ccc(-c2ccnc(SCc3cc4cc(OC)ccc4[nH]c3=O)n2)cc1	label 0
C#CCOc1ccc(/C=N/Nc2nc(-c3cc4cc(OC)ccc4oc3=O)cs2)cc1OC	label 0
CC12CC[C@@H]3[C@]4(C)COC(c5cn[nH]c5-c5cccc(Cl)c5)O[C@@H]4CC[C@@]3(C)[C@@H]1CC(C1=CCOC1=O)O2 (some centres undefined)	label 0
COc1cc(OC)cc(-c2cc3ccc(N(C)C)cc3c(=O)[nH]2)c1	label 0
CC1(C)CC[C@]2(C(=O)Nc3ccc(F)cc3)CC[C@]3(C)C(=CCC4[C@@]5(C)C[C@@H](O)[C@H](O)[C@@](C)(CO)C5CC[C@]43C)C2C1 (some centres undefined)	label 0

Proceed to the following item.
Task: Would you mind telling me which call this test gave O=C(Cn1c(/C=C/c2ccccc2)nc2ccccc2c1=O)Nc1ccccc1 ?
Output: label 0

Value source: PubChem BioAssay (NCI)
